From: ChEMBL document CHEMBL1145162

Biological target: Adenosine receptor A1 (Homo sapiens)
Sequence (whole entry): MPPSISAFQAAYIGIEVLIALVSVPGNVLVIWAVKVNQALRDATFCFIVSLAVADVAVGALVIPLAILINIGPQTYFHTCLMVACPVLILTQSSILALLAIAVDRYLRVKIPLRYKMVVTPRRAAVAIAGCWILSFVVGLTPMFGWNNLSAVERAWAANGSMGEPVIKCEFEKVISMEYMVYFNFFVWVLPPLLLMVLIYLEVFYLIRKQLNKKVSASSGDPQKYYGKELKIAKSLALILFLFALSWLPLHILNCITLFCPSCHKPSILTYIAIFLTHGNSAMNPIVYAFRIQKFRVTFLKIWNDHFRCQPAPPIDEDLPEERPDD
Assay: In vitro allosteric enhancer (AE) activity for adenosine A1 receptor at 50 uM
The threshold is 50%. Values of Alloste ic enhan er (AE) beneath it are tagged Y; values meeting or exceeding it are tagged N.

>>> category("COc1ccccc1-c1ccc2c(c1)Cc1sc(N)nc1-2")
"Y"
>>> category("Cc1ccc(-c2ccc3c(c2)Cc2sc(N)nc2-3)cc1C")
"N"
>>> category("Nc1nc2c(s1)Cc1cc(-c3ccccc3)ccc1-2")
"Y"
>>> category("Cc1cc(C)cc(-c2ccc3c(c2)Cc2sc(N)nc2-3)c1")
"Y"
>>> category("COc1ccc(-c2ccc3c(c2)Cc2sc(N)nc2-3)cc1OC")
"N"
>>> category("Nc1nc2c(s1)Cc1cc(-c3ccccc3F)ccc1-2")
"Y"
>>> category("Cc1sc(N)c(C(=O)c2cccc(C(F)(F)F)c2)c1C")
"Y"
>>> category("Nc1nc2c(s1)Cc1cc(-c3cccc4ccccc34)ccc1-2")
"N"
>>> category("Nc1nc2c(s1)Cc1cc(-c3ccc4ccccc4c3)ccc1-2")
"Y"

----------
Molecular target: Adenosine receptor A1 (Homo sapiens) (UniProt P30542)
Test: Allosteric enhancer activity against adenosine A1 receptor
Quantity Name: EC50

>>> result("Nc1nc2c(s1)Cc1cc(-c3cccc(F)c3)ccc1-2")
"> 10 µM"
>>> result("Nc1nc2c(s1)Cc1cc(-c3cccc4ccccc34)ccc1-2")
"3 µM"
>>> result("Cc1ccc(C)c(-c2ccc3c(c2)Cc2sc(N)nc2-3)c1")
"7.3 µM"
>>> result("COc1ccccc1-c1ccc2c(c1)Cc1sc(N)nc1-2")
"> 10 µM"

----------
Alloste ic enhan er (AE) by entry:
Target: Adenosine receptor A3 (Homo sapiens) (UniProt P0DMS8)
Sequence (whole entry): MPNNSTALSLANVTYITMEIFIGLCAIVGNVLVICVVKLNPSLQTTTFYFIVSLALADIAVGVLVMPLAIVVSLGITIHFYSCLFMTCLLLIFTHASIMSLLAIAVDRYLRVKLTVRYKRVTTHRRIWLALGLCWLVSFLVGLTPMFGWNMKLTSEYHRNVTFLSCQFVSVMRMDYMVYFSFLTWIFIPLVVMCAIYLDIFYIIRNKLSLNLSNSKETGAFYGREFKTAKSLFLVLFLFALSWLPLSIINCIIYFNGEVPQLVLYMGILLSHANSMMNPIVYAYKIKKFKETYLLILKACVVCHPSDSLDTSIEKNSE
Test: In vitro allosteric enhancer (AE) activity for adenosine A3 receptor at 50 uM
Quantity Name: Alloste ic enhan er (AE) (%)

>>> numeric_readout("COc1ccccc1-c1ccc2c(c1)Cc1sc(N)nc1-2")
1
>>> numeric_readout("Nc1nc2c(s1)Cc1cc(-c3ccc(O)cc3)ccc1-2")
1
>>> numeric_readout("Nc1nc2c(s1)Cc1cc(-c3cccc(O)c3)ccc1-2")
1
